system.name: human orexin 1 receptor (Homo sapiens)
procedure.text: Human orexin 1 receptor radioligand binding
assay.conditions: human orexin 1 receptor; averages of 2-20 runs; read-out: hOX1 Ki
Please note: Ki exactly at 9 nM is false. Only values below 9 nM get true.

These solved cases illustrate the format of a correct answer.
>>> print(df.to_string())
                            molecule_smiles                             system_name  category
0  O=C(c1cc(F)ccc1-n1nccn1)N1C[C@H]2C[C@@H](Nc3ncc(Cl)cn3)[C@@H]1C2  human orexin 1 receptor (Homo sapiens)     false
1  O=C(c1cccc(F)c1-n1nccn1)N1C[C@H]2C[C@@H](Nc3ccc(C(F)(F)F)cn3)[C@@H]1C2  human orexin 1 receptor (Homo sapiens)      true
2  O=C(c1cc(F)ccc1-c1ncccn1)N1C[C@H]2C[C@@H](Nc3cnc(C(F)(F)F)cn3)[C@@H]1C2  human orexin 1 receptor (Homo sapiens)      true

Lab log: compare recorded Ki with 9 nM; is it strictly lower for "O=C(c1ccccc1-n1nccn1)N1C[C@H]2C[C@@H](Oc3ccc(F)cn3)[C@@H]1C2" ? false

Lab log: compare recorded Ki with 9 nM; is it strictly lower for "CN(c1ccc(C(F)(F)F)cn1)[C@@H]1C[C@H]2C[C@@H]1N(C(=O)c1ccccc1-n1nccn1)C2" ? true
